Tested on: SN12C renal
EXPERIMENTAL_PROTOCOL: NCI tumour cell line growth inhibition, 48 h
REPORTED_ENDPOINT: GI50

Worked examples, 3 compounds total:
> print(dat)
                         structure.notation  target.entity  reported.endpoint  endpoint.value
1  COc1ccc(/C=N\Nc2nc(SCC(C)C)nc(-c3ccc(OC)cc3)c2C#N)cc1    SN12C renal               GI50          2.1 µM
2  CC(=O)[CH-]C(C)=O.CC(=O)[CH-]C(C)=O.CC(=O)[CH-]C(C)=O.[Ga+3]    SN12C renal               GI50        > 100 µM
3  CN(C)CCCn1c2c(c3cc4c(cc3c1=O)OCO4)C(=O)c1ccccc1-2    SN12C renal               GI50        0.203 µM

Entry COc1ccc2nc3cc(Cl)ccc3c(N3CCN(c4ccnc(N5CCN(C)CC5)n4)CC3)c2c1 : reported GI50 = ?
2.84 µM

Entry CSC1=Nc2c(c(C)c(-c3ccccc3)n2COC(CO)CO)C2=NC(=O)CN12 : reported GI50 = ?
> 100 µM

* * *

Test system: UACC-62 melanoma
EXPERIMENTAL_PROTOCOL: NCI tumour cell line growth inhibition, 48 h
REPORTED_ENDPOINT: TGI

COMPOUND	REPORTED_ENDPOINT	ENDPOINT_VALUE
O=C(O)C12CC3CC(CC(F)(C3)C1)C2	TGI	> 100 µM
COC1=C(OC)[C@]2(OC)c3c(O)c(OC)c4c(c3O[C@@]23O[C@@H](c2ccccc2)CC=C3C1=O)[C@@H](OC)C[C@H](c1ccccc1)O4	TGI	3.83 µM
COc1ccc(COc2cc3oc(=O)c4cc(C(C)O)ccc4c3cc2OC)cc1 (centres undefined)	TGI	34 µM
CC(=O)N(O)c1ccc(/C=C/c2ccccc2)cc1	TGI	4.69 µM
CN1CCC/C1=C1/C(=O)N(c2ccccc2)N=C1c1ccc[nH]1	TGI	> 100 µM
CC(=O)O[C@@H]1[C@H]2[C@@H](OC(=O)c3ccccc3)[C@@H](C)C[C@]2(O)[C@H](OC(C)=O)[C@@]2(C)[C@@H]3C[C@@](C)(OC(C)=O)C[C@@H](OC(C)=O)[C@@]3(OC(C)=O)C[C@@]12C	TGI	> 10 µM
NC(=O)CC(N)c1nn[nH]n1 (centres undefined)	TGI	> 100 µM
C[C@@]1(OC(=O)c2cc([N+](=O)[O-])cc([N+](=O)[O-])c2)C[C@@H]2CCCC[C@@H]21	TGI	> 100 µM

# evaluate next
Entry C/C(N)=N/OCc1nc(C)no1 : reported TGI = ?
> 100 µM

* * *

System: A498 renal
EXPERIMENTAL_PROTOCOL: NCI tumour cell line growth inhibition, 48 h
REPORTED_ENDPOINT: TGI

Worked examples, 5 compounds total:
> print(dat)
                                   compound  reported.endpoint  endpoint.value
1  N#C/C(=C1\OC(=N)C(c2ccc(Cl)cc2Cl)C1=O)c1ccc(Cl)cc1Cl (stereo unspecified)                TGI        > 100 µM
2  O=[N+]([O-])C(=C/c1cccc2ccccc12)/C(=C\c1cccc2ccccc12)[N+](=O)[O-]                TGI         33.5 µM
3  COc1ccc(NC/C=C/C(=C/COC(C)=O)OC(C)=O)cc1                TGI         3.53 µM
4  c1ccc(COC2C3COC(O3)C(OCc3ccccc3)C2OCc2ccccc2)cc1 (stereo unspecified)                TGI        > 100 µM
5       Cn1c(C(=O)c2cccc3ccccc23)nc2ccccc21                TGI        > 100 µM

Entry O=C(Cc1ccccc1)C(c1ccccc1)S(=O)(=O)c1ccccc1 (stereo unspecified) : reported TGI = ?
> 100 µM

Entry C[C@H]1CN(C2COC2)CCN1c1ccc(Nc2cc(-c3ccnc(N4CCn5c(cc6c5CC(C)(C)C6)C4=O)c3CO)cn(C)c2=O)nc1 : reported TGI = ?
33.9 µM

* * *

Test system: SF-268 CNS
EXPERIMENTAL_PROTOCOL: NCI tumour cell line growth inhibition, 48 h
Measured TGI, listed per entry for reference.

Worked examples, 4 molecules total:
> print(dat)
                                   molecule  endpoint.value
1  COc1cccc(C(NC2=NCCC=N2)c2cc3c(cc2O)OCO3)c1O (configuration not stated)        > 100 µM
2  O=C(Nc1ccc2[nH]c(C(=O)N3CC(CCl)c4ccc([N+](=O)[O-])cc43)cc2c1)c1cc2ccccc2o1 (configuration not stated)       > 1100 µM
3  CN1CCCC1c1cccnc1.O=C(O)c1ccccc1O.O=C([O-])c1ccccc1[OH2+].O=C([O-])c1ccccc1[OH2+].[Mn+2] (configuration not stated)        > 100 µM
4  CSc1nc2c3ccccc3ccn2c1C(=O)N/N=C/c1ccccc1       > 72.1 µM

Lab request: please report TGI under test system SF-268 CNS for COc1cc(C(=O)/C=C/c2c(C(F)(F)F)nc3ccccn23)cc(OC)c1OC
3.52 µM

Lab request: please report TGI under test system SF-268 CNS for [Cl][Cu][Cl]
> 10 µM

Lab request: please report TGI under test system SF-268 CNS for COc1cc(/C=C/C2=C(C#N)C(=O)OC2(C)C)ccc1O
> 100 µM

* * *

System: UO-31 renal
EXPERIMENTAL_PROTOCOL: NCI tumour cell line growth inhibition, 48 h
Measured TGI, listed per entry for reference.

> print(dat)
                                    compound  reported.endpoint  endpoint.value
 1  CCCCCCCCCCCCC(O)C(=O)O (centres undefined)                TGI        > 100 µM
 2  C=CCNC(=O)CN(CC(=O)OC)C1CCCCC1N(CC(=O)OC)CC(=O)OC (centres undefined)                TGI        > 100 µM
 3                     C/C(N)=N/OCc1nc(C)no1                TGI        > 100 µM
 4  COc1cc(-c2cc(=O)c3ccccc3[nH]2)cc(OC)c1OC                TGI         > 75 µM
 5  c1ccc(COC2C3COC(O3)C(OCc3ccccc3)C2OCc2ccccc2)cc1 (centres undefined)                TGI        > 100 µM
 6  C=C[C@]1(O[Si](C)(C)C)C[C@@]2(C(=O)OCC)C(O)C(=O)N3CCc4cc(OC)c(OC)cc4[C@]312 (some centres undefined)                TGI        > 100 µM
 7  CCC(=O)C(CCN1CCC(N2C(=O)C(CCC#N)c3ccccc32)CC1)(c1ccccc1)c1ccccc1 (centres undefined)                TGI         21.4 µM
 8           Nc1c(Cl)cc(-c2nc3ccccc3s2)cc1Cl                TGI        > 100 µM
 9         Nc1n[nH]c(CCCCCCCc2nc(N)n[nH]2)n1                TGI        > 100 µM
10  CSc1c(C#N)c(S)n(-c2ccc(Cl)cc2)c(=O)c1C#N                TGI         95.8 µM

Entry CCOC(=O)/C=C/C1(CCOC(C)=O)CCCCC1 : reported TGI = ?
> 10 µM

Entry Cc1cc2c(c(=O)o1)C1=S(SC(c3ccccc3)=C1)S2 (centres undefined) : reported TGI = ?
94.8 µM

Entry COc1ccc(NC/C=C/C(=C/COC(C)=O)OC(C)=O)cc1 : reported TGI = ?
25 µM

Entry CCc1ccccc1NC(=O)CC1NC(=O)CS1 (centres undefined) : reported TGI = ?
> 100 µM

Entry Cc1ccc(S(=O)(=O)N2CC(CCN)c3ccccc32)cc1 (centres undefined) : reported TGI = ?
27.4 µM

Entry Cc1ccc(NC(=O)/C(C#N)=C/c2ccccc2)c(C)c1 : reported TGI = ?
> 100 µM

Entry COC1=C2CC(C)CC(OC)C(OC(=O)CCCN)C(C)/C=C(\C)C(OC(N)=O)C(OC)/C=C\C=C(/C)C(=O)NC(=CC1=O)C2=O (centres undefined) : reported TGI = ?
23.1 µM

Entry Cc1ccc(S(=O)(=O)NC(=O)Nc2cc(Cl)c(S(N)(=O)=O)cc2S(N)(=O)=O)cc1 : reported TGI = ?
> 100 µM

Entry CN1C(=NCCO)NS(=O)(=O)c2ccccc21 : reported TGI = ?
> 100 µM

Entry COc1ccc(-c2c3c(N)c4c(nc3nc3c2c(C)nn3-c2ccccc2)CCCC4)cc1 : reported TGI = ?
11.5 µM

Entry O=c1cc(CNC2CC3CCC2C3)[nH]c(=O)[nH]1 (centres undefined) : reported TGI = ?
> 100 µM

Entry Nc1nc(-c2ccc(Cl)cc2)nc2c1sc(=S)n2-c1ccccc1 : reported TGI = ?
4.19 µM

Entry Cc1cn(C2CC(O)C(Cn3nncc3Cn3ncc(=O)[nH]c3=O)O2)c(=O)[nH]c1=O (centres undefined) : reported TGI = ?
> 100 µM

Entry O=S(=O)(O)c1ccc2cc(N=Nc3c(O)ccc4ccccc34)ccc2c1 : reported TGI = ?
> 100 µM

Entry COCCOCCOCCOCCOC(=O)OC[n+]1ccc(NC(=NCCCCCCOc2ccc(Cl)cc2)NC#N)cc1 : reported TGI = ?
24.1 µM

Entry COc1ccc(S(=O)(=O)N2CCNCC2)cc1OC : reported TGI = ?
> 100 µM

Entry C[C@@H](NC(=O)c1ccc(F)cc1)c1ccc2c(c1)CCN2C(=O)C1CCOCC1 : reported TGI = ?
> 100 µM

Entry C[P+]1(c2ccccc2)CCCCC1 : reported TGI = ?
> 100 µM

Entry COC(=O)CCC(NC(=S)N/N=C(\C)c1cnccn1)C(=O)OC (centres undefined) : reported TGI = ?
> 100 µM

Entry CN(C)c1nc(N)c(C#N)c(C#N)c1C#N : reported TGI = ?
> 10 µM

Entry COc1ccc(NC(=O)C(=O)Cc2nc3ccc(C(=O)c4ccccc4)cc3[nH]c2=O)c([N+](=O)[O-])c1 : reported TGI = ?
67.6 µM

Entry COc1cc(C(=O)/C=C/c2c(C(F)(F)F)nc3ccccn23)cc(OC)c1OC : reported TGI = ?
3.11 µM

Entry CN(C)CC(/C(Cc1ccccc1)=N\NC(=S)NN)c1ccccc1 (centres undefined) : reported TGI = ?
> 100 µM

Entry CSC1=Nc2c(c(C)c(-c3ccccc3)n2COC(CO)CO)C2=NC(=O)CN12 : reported TGI = ?
> 100 µM

Entry c1ccc2c(CNCCN3CCNCC3)c3ccccc3c(CNCCN3CCNCC3)c2c1 : reported TGI = ?
> 100 µM

Entry O=c1[nH]c(=S)[nH]c(-c2ccccc2)c1Cc1c(O)ccc2ccccc12 : reported TGI = ?
80.9 µM

Entry CN(CCNC(=S)c1cn(C)c2c1ccc1ccccc12)CCNC(=S)c1cn(C)c2c1ccc1ccccc12 : reported TGI = ?
> 100 µM

Entry CC(C)CCC[C@@H](C)[C@H]1CC[C@H]2C3=C[C@H](OS(=O)(=O)O)[C@@]4(O)C[C@@H](O)CC[C@]4(C)[C@@]3(O)CC[C@]12C : reported TGI = ?
> 100 µM

Entry Clc1nc(Cl)c2ncn(CCOCCn3cnc4c(Cl)nc(Cl)nc43)c2n1 : reported TGI = ?
1.25 µM
